// provenance: patent US8076352B2

System: hypoxia-inducible endogenous VEGF expression in HeLa cells
Test: Hypoxia-inducible endogenous VEGF expression, VEGF ELISA of conditioned media (dose-response EC50)
Format: cell-based
Conditions: Homo sapiens, HeLa cells, hypoxic conditions (1% O2)
pEC50: −log10 of the molar value.
value kind: pEC50

Each compound below has a reported value. Please supply its pEC50.
1. COc1ccc(C2c3[nH]c4ccc(OCc5ccccc5)cc4c3CCN2C(=O)Oc2ccc(Cl)cc2)cc1 (stereo not shown) [Compound 616]
2. O=C(Oc1ccc(Cl)cc1)Oc1ccc(C2c3[nH]c4ccc(Cl)cc4c3CCN2C(=O)Oc2ccc(Cl)cc2)cc1 (stereo not shown) [Compound 578]
3. CCOC(=O)N1CCc2c([nH]c3ccc(Cl)cc23)C1c1ccc(C(=O)N(C)CCCN(C)C)cc1 (stereo not shown) [Compound 558]
4. CSC(C)CC1NCCc2c1[nH]c1ccc(Cl)cc21 (stereo not shown) [Compound 568]

["6.00 to 6.70", "6.70 to 7.40", "6.00 to 6.70", "< 6.00"]

Hey, quick one: what's pEC50 for each of these?
1. CCOC(=O)N1CCc2c([nH]c3ccc(Cl)cc23)C1c1ccc(C(=O)NCCCN2CCCC2=O)cc1 (stereo not shown) [Compound 512]
2. CCOC(=O)N1CCc2c([nH]c3ccc(Br)cc23)C1c1ccc(C(=O)N2CCN(C)CC2)cc1 (stereo not shown) [Compound 478]
3. O=C(Oc1ccc(F)cc1)N1CCc2c([nH]c3ccc(Cl)cc23)C1c1ccc(OCCCCN2CCCC2)cc1 (stereo not shown) [Compound 736]
4. COCCOCCOc1ccc(C2c3[nH]c4ccc(Cl)cc4c3CCN2C(=O)Oc2ccc(OC)cc2)cc1 (stereo not shown) [Compound 678]
5. COC(=O)c1ccc(C2c3[nH]c4ccc(Br)cc4c3CCN2C(=O)Oc2ccc(Cl)cc2)cc1 (stereo not shown) [Compound 591]

6.70 to 7.40
6.70 to 7.40
> 8.10
6.70 to 7.40
> 8.10

For every record below, what is its pEC50?
1. CCOC(=O)N1CCc2c([nH]c3ccc(Cl)cc23)C1c1cccc(C(=O)N2CCN(CCOC)CC2)c1 (stereo not shown) [Compound 562]
2. CCOC(=O)N1CCc2c([nH]c3ccc(Cl)cc23)C1c1ccc(S(=O)(=O)N2CCOCC2)cc1 (stereo not shown) [Compound 487]
3. O=C(Oc1ccc(Cl)cc1)N1CCc2c([nH]c3ccc(Cl)cc23)C1c1ccc(OCCCCn2ccnc2)cc1 (stereo not shown) [Compound 705]
4. C=CCOc1ccc(C2c3[nH]c4ccc(Cl)cc4c3CCN2C(=O)Oc2ccc(OC)cc2)cc1 (stereo not shown) [Compound 432]
5. CCOC(=O)N1CCc2c([nH]c3ccc(Cl)cc23)C1c1ccc(OCCOCCOC)cc1 (stereo not shown) [Compound 404]
6. O=C(Oc1ccc(Cl)cc1)N1CCc2c([nH]c3ccc(Cl)cc23)C1c1ccc(OCCCCN2CCOCC2)cc1 (stereo not shown) [Compound 702]
7. CN(C)CCCOc1ccc(C2c3[nH]c4ccc(Cl)cc4c3CCN2C(=O)Oc2ccccc2)cc1 (stereo not shown) [Compound 493]
8. COCCOc1ccc(C2c3[nH]c4ccc(Cl)cc4c3CCN2C(=O)OCCF)cc1 (stereo not shown) [Compound 423]

1. < 6.00
2. 6.70 to 7.40
3. 7.40 to 8.10
4. > 8.10
5. > 8.10
6. 7.40 to 8.10
7. 6.70 to 7.40
8. > 8.10

I have 8 compounds here; please give me pEC50 for each one.
1. CNc1ncc(C2c3[nH]c4ccc(Br)cc4c3CCN2C(=O)Oc2ccc(OC)cc2)cn1 (stereo not shown) [Compound 503]
2. CC(C)NCCCCCCOc1ccc(C2c3[nH]c4ccc(Cl)cc4c3CCN2C(=O)Oc2ccc(Cl)cc2)cc1 (stereo not shown) [Compound 784]
3. CC(C)NCCCCCCOc1ccc(C2c3[nH]c4ccc(Cl)cc4c3CCN2C(=O)Oc2ccc(F)cc2)cc1 (stereo not shown) [Compound 774]
4. COC(=O)c1ccc(C2c3[nH]c4ccc(Cl)cc4c3CCN2C(=O)Oc2ccccc2Cl)cc1 (stereo not shown) [Compound 590]
5. C=CCOc1ccc(C2c3[nH]c4ccc(Cl)cc4c3CCN2C(=O)Oc2ccccc2)cc1 (stereo not shown) [Compound 413]
6. CCOC(=O)N1CCc2c([nH]c3ccc(Br)cc23)C1c1ccc(CN2CCN(C)CC2)cc1 (stereo not shown) [Compound 474]
7. Cc1ccc(C2c3[nH]c4ccc(Br)cc4c3CCN2C(=O)Oc2ccc(F)cc2)cc1 (stereo not shown) [Compound 398]
8. CC(C)OC(=O)N1CCc2c([nH]c3ccc(Cl)cc23)C1c1ccc(OCCCN(C)C)cc1 (stereo not shown) [Compound 459]

6.70 to 7.40
> 8.10
7.40 to 8.10
7.40 to 8.10
> 8.10
6.70 to 7.40
> 8.10
7.40 to 8.10
